These entries and their values trace back to patent US20200002421A1.

Each entry below carries its reported pEC50.
- TGT: T1, Cynomolgous B7-H3 on cells (cynomolgus)
- T1 construct: whole, on cells; also called cyno B7-H3; cyB7-H3
- EXPERIMENT SUMMARY: FACS
- Experimental: Cells were harvested from flasks when approximately 80% confluent using Gibco® Cell Dissociation Buffer. Cells were washed once in PBS/1% FBS (FACS buffer) then resuspended at 2.5×10⁶ cells/mL in FACS buffer. 100 μL of cells/well were added to a round bottom 96-well plate. […] Cells were resuspended in 100 μL of PBS/1% formaldehyde and analyzed on a Becton Dickinson LSRII flow cytometer. Data was analyzed using WinList flow cytometry analysis software. […]
pEC50: −log10 of the molar value.

BINDER	pEC50
chAb13 (antibody, IgG1, V domains shown, chimeric, huIgG1/k) VH: DVQLQESGPDLVKPSQSLSLTCTVTGYSITSGYSWHWIRQFPGNKLEWMGYIHSSGSTNYNPSLKSRISINRDTSKNQFFLQLNSVTTEDTATYYCAGYDDYFEYWGQGTTLTVSS VL: DIVMTQSQKFMSTSVGDRVSVTCKASQNVGFNVAWYQQKPGQSPKALIYSASYRYSGVPDRFTGSGSGTDFTLTISNVQSEDLAEYFCQQYNSYPFTFGSGTKLEIK	7.74
huAb13v5 (antibody, V domains shown) VH: EVQLQESGPGLVKPSETLSLTCAVTGYSITSGYSWHWIRQFPGNGLEWMGYIHSSGSTNYNPSLKSRISISRDTSKNQFFLKLSSVTAADTAVYYCAGYDDYFEYWGQGTTVTVSS VL: DIQMTQSPSSLSASVGDRVTITCKASQNVGFNVAWYQQKPGKAPKLLIYSASYRYSGVPSRFSGSGSGTDFTLTISSLQPEDFATYYCQQYNWYPFTFGQGTKLEIK	7.98
huAb13v6 (antibody, V domains shown) VH: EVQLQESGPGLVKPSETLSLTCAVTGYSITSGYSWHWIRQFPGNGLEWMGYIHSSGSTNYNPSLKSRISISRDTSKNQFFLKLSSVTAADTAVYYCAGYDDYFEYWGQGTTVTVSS VL: DIQMTQSPSSLSASVGDRVTITCKASQNVGFNVAWYQQKPGKAPKLLIYSASYRYSGVPSRFSGSGSGTDFTLTISSLQPEDFATYFCQQYNWYPFTFGQGTKLEIK	7.89
